- System: UACC-62 melanoma
- Test method notes: NCI-60 one-dose screen, 48 h (100 = growth as untreated, 0 = no growth, -100 = all killed)
- Recorded conditions: 10 µM unless noted
- Procedure: Growth inhibition of the UACC-62 human tumor cell line is measured as a screen for anti-cancer activity. Cells are grown in 96 well plates and exposed to the test compound for 48 hours. Compounds are tested at a single concentration, which is 10^-5 M for most compounds. The reported endpoint is percent growth (GI% or GIPRCNT), where numbers from 0 - 100% represent growth inhibition, and numbers from -100% - 0 represent cell death. For example, a value of 40 represents 60% growth inhibition. […]
Compounds without any hit were thinned out: in the full panel of roughly 83,000, 20% have a hit.
Range-based classes on measured growth: low interval = under 20%, middle interval = from 20% up to 70%, high interval = 70% and over

> print(dat)
                                         mol       target.desc     answer.label
 1  CCc1cccc(C)c1NC(=O)c1sc2nc3c(cc2c1N)CCCCC3  UACC-62 melanoma  middle interval
 2  COc1cc2c(cc1OCCCCC(=O)Nc1ccc(-c3nc4ccccc4s3)cc1)N=C[C@@H]1CCCN1C2=O  UACC-62 melanoma     low interval
 3    COc1ccc(-c2cc3ccc(N(C)C)cc3nc2N)c(F)c1  UACC-62 melanoma  middle interval
 4  O=C(N/N=C1\SCC(=O)N1c1ccccc1)c1cc(-c2cc3ccccc3o2)nn1-c1ccccc1  UACC-62 melanoma    high interval
 5  CC1(C)N=C(N)N=C(N)N1c1ccc(F)c(C(F)(F)F)c1  UACC-62 melanoma  middle interval
 6  O=C(NNC(=O)c1ccc([N+](=O)[O-])cc1)c1ccc([N+](=O)[O-])cc1  UACC-62 melanoma    high interval
 7  CC(=O)c1cc2c(c(O)c1C)C(=O)C(=O)c1c(O)cccc1-2  UACC-62 melanoma     low interval
 8           CC(C)(C)OC(=O)NCc1cccc(N=C=S)c1  UACC-62 melanoma     low interval
 9  COc1cc(/C=C/C(=O)c2ccc(Oc3ncnc4ccccc34)cc2)cc(OC)c1OC  UACC-62 melanoma  middle interval
10  COc1ccc(C(=O)Cn2cnc3c(Nc4cc(C(=O)Nc5ccc(N6CCN(CCO)CC6)cc5)ccc4C)ncnc32)cc1  UACC-62 melanoma    high interval

====

- System: MDA-MB-435 melanoma
- Test method notes: NCI-60 one-dose screen, 48 h (100 = growth as untreated, 0 = no growth, -100 = all killed)
- Recorded conditions: 10 µM unless noted
Compounds without any hit were thinned out: in the full panel of roughly 83,000, 20% have a hit.
Measured metric: growth (%)

> print(dat)
                                    compound  measured.value
 1  O=C(Nc1ccc(-n2cc(-c3ccncc3)c(-c3ccc(O)c(Cl)c3)n2)cc1)c1ccc(Cl)c(Cl)c1            27.1
 2  COc1cc(NC(=O)c2cc(OC)c3ccn(C)c3c2)cc2c1C[C@]1(C)CC[C@@H](O)C(C)(C)[C@H]1O2              64
 3  C=C1C(=O)O[C@H]2[C@H]1CC/C(COC(=O)c1ccc(Cl)nc1)=C\CC[C@@]1(C)O[C@@H]21            14.6
 4  CN(C)c1ccc(/C=N/n2c(-c3cc(F)c(Cl)cc3Cl)nn(CN3CCOCC3)c2=S)cc1            80.7
 5  CCCC(=O)Oc1ccc(/C(=C(\C)c2ccc(OC)cc2)c2ccc(OCCN3CCCCC3)cc2)cc1            84.2
 6  CC(=O)N1N=C2N(Cc3ccccc3)C(=O)c3c(sc4c3CCCC4)N2C1c1cn(-c2ccccc2)nc1-c1ccc(Cl)cc1 (stereo unspecified)            95.4
 7  CCC(N)(C(=O)O)c1ccc(F)cc1 (stereo unspecified)             105
 8  CCCCCCCC(=O)SCC/C=C/[C@@H]1CC(=O)NCc2nc(cs2)C2=N[C@@](C)(CS2)C(=O)N[C@@H](C(C)C)C(=O)N1            6.04
 9  COc1ccc(-c2nnc(SCC(=O)N3CCN(c4cc5c(cc4F)c(=O)c(C(=O)O)cn5C4CC4)CC3)o2)cc1OC             100
10  Cc1cc(NC(=O)c2cccc(C(F)(F)F)c2)ccc1-n1ccc2c(NC(=O)c3ccccc3)nccc21             105
11  Nc1ncnc2c1c(C(F)(F)F)cn2[C@@H]1O[C@H](CO)[C@@H](O)[C@H]1O            12.3
12  O=[N+]([O-])c1cccc(C(c2ccccc2)c2ccccc2)c1            99.5
13  CN1CCN(Cn2nc(-c3cc(F)c(Cl)cc3Cl)n(/N=C/c3ccc(N(C)C)cc3)c2=S)CC1           -7.65
14     Cn1c(I)c(C#C[Si](C)(C)C)c(=O)[nH]c1=O            58.7
15               Cc1cccc[n+]1CCC[n+]1ccccc1C             102
16  COc1ccc(-c2nn(-c3ccc(NC(=O)c4cc(Cl)cc(Cl)c4)cc3)cc2-c2ccncc2)cc1Cl            68.6

====

- System: SF-539 CNS
- Test method notes: NCI-60 one-dose screen, 48 h (100 = growth as untreated, 0 = no growth, -100 = all killed)
- Recorded conditions: 10 µM unless noted
The panel holds about 83,000 compounds, 20% with a hit somewhere; the sample as a whole holds those more often.
Catalogue of growth values
Measured metric: growth (%)

> print(dat)
                                    compound  target.desc  measured.value
 1  O=C(COc1ccc(Cl)cc1)N1CCN(Cc2ccc3c(c2)OCO3)CC1   SF-539 CNS             104
 2  O=C(Nc1ccc(-n2ccc3c(NC(=O)c4ccccc4)ncnc32)cc1)Nc1ccc(Cl)c(C(F)(F)F)c1   SF-539 CNS            13.5
 3  CC1(C)N=C(N)N=C(N)N1c1ccc(OCC(=O)Nc2ccccc2)c(Cl)c1   SF-539 CNS            23.8
 4  OC(COc1ccccc1Cl)CN1CCN(c2ccc(Cl)cc2)CC1 (stereo not given)   SF-539 CNS            90.6
 5  COc1cc2ncn3c(=O)c4c5c(sc4nc3c2cc1OC)CCCCC5   SF-539 CNS             100
 6  COc1ccc(-c2cc(-c3nnc(SC/C(=N\O)c4ccccc4)n3-c3ccccc3)c3ccccc3n2)cc1   SF-539 CNS             102
 7  C=CCn1c(SCC(=O)Nc2ccc(/C(C)=N\O)cc2)nnc1-c1cc(-c2ccc(OC)cc2)nc2ccccc12   SF-539 CNS            20.2
 8                   Cn1c2ccccc2c2ssc(=S)c21   SF-539 CNS            97.5
 9  O=C(Nc1cccc(-n2ccc3c(NC(=O)c4ccccc4)nccc32)c1)Nc1cc(C(F)(F)F)cc(C(F)(F)F)c1   SF-539 CNS           -19.3
10  O=C(O)c1cn(C2CC2)c2cc(N3CCN(C(=O)CSc4nc(NS(=O)(=O)c5ccccc5)cc(=O)[nH]4)CC3)c(F)cc2c1=O   SF-539 CNS            98.1
11  COc1cc(-c2nc(N)n(CC(=O)Nc3ccc(/C(C)=N\O)cc3)n2)cc(OC)c1OC   SF-539 CNS            97.1
12          O=C(NC(=S)Nc1ccc(Cl)cc1)c1ccccc1   SF-539 CNS             103
13  CC(C)C(=O)Nc1nc2c(s1)CCCc1ccn(S(=O)(=O)c3ccccc3)c1-2   SF-539 CNS             100
14  COC(=O)c1oc2c(C(=O)/C=C/c3ccc(OC)cc3)c(OCCN3CCOCC3)ccc2c1C   SF-539 CNS             -34
15  C=C1C(=O)O[C@H]2[C@H]1CC/C(COC(=O)c1ccc3ccccc3c1)=C\CC[C@@]1(C)O[C@@H]21   SF-539 CNS           -94.9
16  CCC(CC(C)C)Nc1ccc(NC(CC)CC(C)C)cc1 (stereo not given)   SF-539 CNS             107
17  Nc1ncnc2c1ncn2C1OC(COC(c2ccccc2)(c2ccccc2)c2ccccc2)C(O)C1O (stereo not given)   SF-539 CNS             103
18  CCOc1ccccc1C(=O)N1CCN(c2cc(Cl)cc(Cl)c2)CC1   SF-539 CNS           -4.39
19  COc1ccc(-c2nnc(SCC(=O)Nc3ccc(C(=O)/C=C/c4ccc(OC)c(OC)c4)cc3)o2)cc1   SF-539 CNS              96
20       CN(C)C(=O)Nc1nc2cc(Cl)c(Cl)cc2[nH]1   SF-539 CNS           -24.7
21  COc1ccc(/C=C/C(=O)c2ccc(NC(=O)CSc3nnc(-c4cc(OC)c(OC)c(OC)c4)o3)cc2)cc1   SF-539 CNS           -90.3
22  COc1ccc(/C(=C/c2cc(OC)c(OC)c(OC)c2)[N+](=O)[O-])cc1   SF-539 CNS           -11.3
23             Fc1cccc(F)c1C#Cc1ccc2cccnc2c1   SF-539 CNS             102
24  CCc1cccc(C)c1NC(=O)c1sc2nc3c(cc2c1N)CCCCC3   SF-539 CNS            11.1
25  CCC1S/C(=N\N=C(/C)c2cccs2)N(c2ccccc2)C1=O (stereo not given)   SF-539 CNS             124
26  CC(C(C(=O)N1CCCCC1)N1CCCCC1)N1CCCCC1 (stereo not given)   SF-539 CNS             116
27  CCOc1ccc(Cc2nccc3cc(OCC)c(OCC)cc23)cc1OCC   SF-539 CNS            65.9
28  CNCCCOc1c(Br)cc(CCNC(=O)/C(Cc2ccc(OC)c(Br)c2)=N/O)cc1Br   SF-539 CNS            32.1
29  CCOC(=O)C1CSC(C)(C(=O)OCC)N1 (stereo not given)   SF-539 CNS             104
30  COc1ccc(Cn2cc3c(c2-c2cc(OC)c(OC)c(OC)c2)CCc2c(CO)noc2-3)cc1   SF-539 CNS            3.55
31               COc1ccccc1C(OC(C)=O)OC(C)=O   SF-539 CNS             101
32  C=C1C(=O)O[C@H]2[C@H]1CC/C(COC(=O)c1ccc(C#N)cc1)=C\CC[C@@]1(C)O[C@@H]21   SF-539 CNS           -32.3
33  COc1cccc(-c2nc3sccn3c2-c2ccnc(NCCNC(=O)c3ccccc3)n2)c1   SF-539 CNS            97.7
34  C[C@H]1C=C(C[C@@H](O)CC#CC#CCCCCC[C@@H](O)[C@H]2CCC(=O)O2)C(=O)O1   SF-539 CNS            93.1
35  O=C(Nc1ccc(-n2cc(-c3ccncc3)c(-c3ccc(O)c(Cl)c3)n2)cc1)c1ccc(Cl)c(C(F)(F)F)c1   SF-539 CNS            2.46
36  CN(C)c1ccc(/C=c2\s/c(=C\C(=O)C(C)(C)C)[nH]c2=O)cc1   SF-539 CNS            96.6
37  O=C(NCCNc1nccc(-c2c(-c3cccc(O)c3)nc3sccn23)n1)Nc1cccc(C(F)(F)F)c1   SF-539 CNS            98.5
38  CCCCN(CCCC)c1ccc(C(=N)c2ccc(N(C)C)cc2)cc1   SF-539 CNS           -89.1
39  CC(=O)c1cc2c(N)c(C(=O)Nc3cccc(Cl)c3)sc2nc1C   SF-539 CNS            85.3
40  O=C1C(Cl)=C(Nc2cccc3cc4ccccc4nc23)C(=O)c2ccccc21   SF-539 CNS            40.7
